# assayName: Inhibition of porcine heart Succinate-cytochrome c reductase complex 2 by measuring decrease in DCIP
# Format: tissue-based, Sus scrofa
pIC50: −log10 of the molar value.
readoutType: pIC50

Solved entries (count: 2):
Query: Dear colleague, please send me the reported pIC50 for `COC(=O)NC/C=C\c1nc(C(=O)Nc2cccc3c2ccn3Cc2ccc(F)cc2)co1` when you can.
Reply: 5.84

Query: Dear colleague, please send me the reported pIC50 for `COC(=O)NC/C=C\c1nc(C(=O)Nc2cccc3c2ccn3Cc2ccccc2F)co1` when you can.
Reply: 5.87

a: COC(=O)NC/C=C\c1nc(C(=O)Nc2cccc3c2ccn3Cc2cccc(F)c2)co1
b: COC(=O)NC/C=C\c1nc(C(=O)Nc2cccc3c2ccn3Cc2cccc(C)c2)co1
Query: Field: lower pIC50 | Options: a / b // output: label of the selected item
Reply: a
(a: 5.76, b: 6.15)
